# Test system: T. brucei BSF
# test_protocol: Antitrypanosomal activity, alamarBlue assay
# Type: cell-based, Trypanosoma brucei
# assay_conditions: SI = IC50 MRC-5/IC50 parasite
I would appreciate it if you labelled entries Criterion met when Selectivity Index (SI) T. brucei is 4 or higher, otherwise Criterion not met.

Does the compound CC1=C(C=O)C(C)=[N+]2C1=C(c1c3ccccc3cc3ccccc13)c1c(C)c(C=O)c(C)n1[B-]2(F)F have recorded Selectivity Index (SI) T. brucei that is 4 or more?
Criterion not met

Query CC1=C(C=O)C(C)=[N+]2C1=C(c1ccc(N(c3ccccc3)c3ccccc3)cc1)c1c(C)cc(C)n1[B-]2(F)F next
Criterion not met

Query CC1=C(c2nc3ccccc3[nH]2)C(C)=[N+]2C1=C(c1ccccc1)c1c(C)cc(C)n1[B-]2(F)F next
Criterion met

Query CC1=C(C=O)C(C)=[N+]2C1=C(c1cccs1)c1c(C)cc(C)n1[B-]2(F)F next
Criterion met

Query CC1=CC(C)=[N+]2C1=C(c1c3ccccc3cc3ccccc13)c1c(C)cc(C)n1[B-]2(F)F next
Criterion not met

Query CC1=CC(C)=[N+]2C1=C(c1nccs1)c1c(C)cc(C)n1[B-]2(F)F next
Criterion not met

---

Would you kindly list IC50 for each of these compounds?
# Test system: L. major promastigotes
# test_protocol: Antileishmanial activity, MTT-based assay
# Type: cell-based, Leishmania major
# assay_conditions: promastigotes, 72 h incubation, MTT; error reported as σ
Report as a plain number; the unit µM is understood.

Quick one: IC50 of CC1=CC(C)=[N+]2C1=C(c1ccc(N(C)C)c3ccccc13)c1c(C)cc(C)n1[B-]2(F)F ?
4.84

Query CCn1c2ccccc2c2cc(C3=C4C(C)=C(C=O)C(C)=[N+]4[B-](F)(F)n4c(C)cc(C)c43)ccc21 next
20.7

Query CC1=CC(C)=[N+]2C1=C(c1cc3sccc3s1)c1c(C)cc(C)n1[B-]2(F)F next
92.2

---

# Test system: L. major promastigotes
# test_protocol: Antileishmanial activity, MTT-based assay
# Type: cell-based, Leishmania major
# assay_conditions: promastigotes, 72 h incubation, MTT; error reported as σ
metric_name: pIC50
Recall that pIC50 is obtained by taking minus log10 of the concentration measured in molar.

Quick one: pIC50 of CC1=CC(C)=[N+]2C1=C(c1ccc(N(C)C)c3ccccc13)c1c(C)c(-c3nc4ccccc4[nH]3)c(C)n1[B-]2(F)F ?
4.07

Query CC1=CC(C)=[N+]2C1=C(c1cccs1)c1c(C)cc(C)n1[B-]2(F)F next
4.19

Query CC1=CC(C)=[N+]2C1=C(c1ccccc1)c1c(C)cc(C)n1[B-]2(F)F next
4.71

---

# System: T. brucei BSF
# test_protocol: Antitrypanosomal activity, alamarBlue assay
# Format: cell-based, Trypanosoma brucei
# assay_conditions: Trypanosoma brucei; bloodstream form, 72 h incubation, alamarBlue; error reported as σ
metric_name: IC50
Answers without a unit are incomplete; give the number and then its unit.

Quick one: IC50 of CC1=C(I)C(C)=[N+]2C1=C(c1c3ccccc3cc3ccccc13)c1c(C)c(I)c(C)n1[B-]2(F)F ?
28.1 µM

Query CC1=C(C=O)C(C)=[N+]2C1=C(c1c3ccccc3cc3ccccc13)c1c(C)c(C=O)c(C)n1[B-]2(F)F next
14.2 µM

Query CC1=C(C=O)C(C)=[N+]2C1=C(c1ccc(N(c3ccccc3)c3ccc(C=O)cc3)cc1)c1c(C)cc(C)n1[B-]2(F)F next
38.3 µM
